Test system: S. aureus (MRSA SAP0017)
Type: cell-based, Staphylococcus aureus
details: SPOT synthesized peptide, ~12.5 μM, clinical MRSA strain, crystal violet assay
Non-standard residues stand in square brackets, D forms with d. No end group written: not given here. hArg = N=C(N)NCCCC[C@H](N)C(=O)O; Agb = N=C(N)NCC[C@H](N)C(=O)O
# % Residual MRSA biofilm growth compared to untreated control listing for each entry below
measure.name: % Residual MRSA biofilm growth compared to untreated control

substance	target.or.test.system	value.measured
VRLIVHarVRIWRR (VRLIV[hArg]VRIWRR-NH2; N-terminus assumed; SMILES CC[C@H](C)[C@H](NC(=O)[C@H](CCCNC(=N)N)NC(=O)[C@@H](NC(=O)[C@H](CCCCNC(=N)N)NC(=O)[C@@H](NC(=O)[C@@H](NC(=O)[C@H](CC(C)C)NC(=O)[C@H](CCCNC(=N)N)NC(=O)[C@@H](N)C(C)C)[C@@H](C)CC)C(C)C)C(C)C)C(=O)N[C@@H](Cc1c[nH]c2ccccc12)C(=O)N[C@@H](CCCNC(=N)N)C(=O)N[C@@H](CCCNC(=N)N)C(N)=O) [Peptide 1018-r30]	S. aureus (MRSA SAP0017)	57%
GbutRLIVAVRIWRR ([Agb]RLIVAVRIWRR-NH2; N-terminus assumed; SMILES CC[C@H](C)[C@H](NC(=O)[C@H](CCCNC(=N)N)NC(=O)[C@@H](NC(=O)[C@H](C)NC(=O)[C@@H](NC(=O)[C@@H](NC(=O)[C@H](CC(C)C)NC(=O)[C@H](CCCNC(=N)N)NC(=O)[C@@H](N)CCNC(=N)N)[C@@H](C)CC)C(C)C)C(C)C)C(=O)N[C@@H](Cc1c[nH]c2ccccc12)C(=O)N[C@@H](CCCNC(=N)N)C(=O)N[C@@H](CCCNC(=N)N)C(N)=O) [Peptide 1018-r13]	S. aureus (MRSA SAP0017)	47%
VKGAIKRGIWVK (VKGAIKRGIWVK-NH2) [Imax-5]	S. aureus (MRSA SAP0017)	99%
KKQKKIWRRILV (KKQKKIWRRILV-NH2) [Mmax-16]	S. aureus (MRSA SAP0017)	105%

---

System: S. aureus (MRSA SAP0017)
Type: cell-based, Staphylococcus aureus
details: SPOT synthesized control peptides, determined as in Table 5; Table 7
Experimental: Methods of assessment of anti-biofilm activity: MRSA S. aureus strain SAP0017 biofilm formation was initially analyzed using a static abiotic solid surface assay as described elsewhere (de la Fuente-Nunez et al., 2012) and shown graphically in FIG. 2. […] Peptide was added at time zero (prior to adding the diluted, overnight cultures) in varying concentrations, and the amount biofilm formation was recorded after 22-46 h incubation for most bacteria. […]
Non-standard residues stand in square brackets, D forms with d. No end group written: not given here. Agb = N=C(N)NCC[C@H](N)C(=O)O; Agp = N=C(N)NC[C@H](N)C(=O)O; Orn = NCCC[C@H](N)C(=O)O; Dap = NC[C@H](N)C(=O)O

substance	% Biofilm Inhibition, %
C106 (VR[Orn]IVAVRIWRR-NH2; N-terminus assumed; SMILES CC[C@H](C)[C@H](NC(=O)[C@H](CCCNC(=N)N)NC(=O)[C@@H](NC(=O)[C@H](C)NC(=O)[C@@H](NC(=O)[C@@H](NC(=O)[C@H](CCCN)NC(=O)[C@H](CCCNC(=N)N)NC(=O)[C@@H](N)C(C)C)[C@@H](C)CC)C(C)C)C(C)C)C(=O)N[C@@H](Cc1c[nH]c2ccccc12)C(=O)N[C@@H](CCCNC(=N)N)C(=O)N[C@@H](CCCNC(=N)N)C(N)=O) [Peptide C106]	104
C72 (VRLI[Agb]AVRIWRR; not fully specified (C-terminus); printed as VRLIGbutAVRIWRR) [Peptide C72]	105
C11 (KAVKKGRRAIVV) [Peptide C11]	106
C91 (VRLIV[Dap]VRIWRR) [Peptide C91]	76
C79 (VRLIVAVRIWR[Agb]) [Peptide C79]	72
C60 (VRL[Agp]VAVRIWRR-NH2; N-terminus assumed; SMILES CC[C@H](C)[C@H](NC(=O)[C@H](CCCNC(=N)N)NC(=O)[C@@H](NC(=O)[C@H](C)NC(=O)[C@@H](NC(=O)[C@H](CNC(=N)N)NC(=O)[C@H](CC(C)C)NC(=O)[C@H](CCCNC(=N)N)NC(=O)[C@@H](N)C(C)C)C(C)C)C(C)C)C(=O)N[C@@H](Cc1c[nH]c2ccccc12)C(=O)N[C@@H](CCCNC(=N)N)C(=O)N[C@@H](CCCNC(=N)N)C(N)=O) [Peptide C60]	104
